Values from patent US20220259593A1

System: K562 CRISPRi cells
Experiment: Constant region variant library pooled growth screen, K562
Format: cell-based, human
Conditions: sgRNA constant region variants; activity relative to the original, un-modified constant region cr995
Recorded Mean relative activity by entry
# answer = number (no unit)

A selection of reference data follows.
cr990 (nucleic acid, listed as DNA, chemistry not fully specified) guide: GTTTAAGAGCTAAGCTGGAAACAGCATATCAAGCTTAAATAAGGCTAGTCCGTTATGAACTTGAAAAAGTGGCACCGAGTCGGTGCT: −0.0163
cr830 (nucleic acid, listed as DNA, chemistry not fully specified) guide: GTTTAAGAGCTAAGCTGGAAACAGCATAGCAAGTTTAAATAAGGCTAGGCCGTTATCAACTTGAAAAAGTGTCACCGAGTCGGTGCT: 0.02925
cr735 (nucleic acid, listed as DNA, chemistry not fully specified) guide: GTTTAAGAGCTAAGCTGGAAACAGCATAGCAACTTTAAATAAGGCTAGTCCGTTATCAACTTGAAAAAGTCGCACCGAGTCGGTGCT: 0.002596

**Query** // Mean relative activity lookup, key: cr595 (nucleic acid, listed as DNA, chemistry not fully specified) guide: GTTTAAGAGCTAAGCTGGAAACAGCATAGCAAGTTTAAATAACGCTAGTCCGTTATCAACTTGAAAAAGTGGCACCGAGTCGGTGCT
**Result** −0.002984
